system: NCI-H1648; test: relative viability (nuclei count vs DMSO), 5 days (fraction); higher = more cells survive; details: first compound 0.000632 µM
Measure name: relative viability
Form rule: numeric answer, no unit written next to it.

Query: Please give the measured relative viability for this compound: CC(=O)O[C@@]12CO[C@@H]1C[C@H](O)[C@@]1(C)C(=O)[C@H](O)C3=C(C)[C@@H](OC(=O)[C@H](O)[C@@H](NC(=O)OC(C)(C)C)c4ccccc4)C[C@@](O)([C@@H](OC(=O)c4ccccc4)[C@H]21)C3(C)C [Docetaxel] + Nc1ncn([C@H]2C[C@H](O)[C@@H](CO)O2)c(=O)n1 [Decitabine] (partner 2 µM)
Result: 0.487

---

Consider the following compounds; for each one, report its relative viability.
system: HCC-827; assay: relative viability (nuclei count vs DMSO), 5 days (fraction); higher = more cells survive; settings: first compound 0.02 µM
Form rule: numeric answer, no unit written next to it.

Query: Please give the measured relative viability for this compound: CC(=O)O[C@@]12CO[C@@H]1C[C@H](O)[C@@]1(C)C(=O)[C@H](O)C3=C(C)[C@@H](OC(=O)[C@H](O)[C@@H](NC(=O)OC(C)(C)C)c4ccccc4)C[C@@](O)([C@@H](OC(=O)c4ccccc4)[C@H]21)C3(C)C [Docetaxel] + Nc1nc2[nH]cc(CCc3ccc(C(=O)N[C@@H](CCC(=O)O)C(=O)O)cc3)c2c(=O)[nH]1 [Pemetrexed] (partner 0.2 µM)
Result: 0.215

Query: Now the compound CC(=O)O[C@@]12CO[C@@H]1C[C@H](O)[C@@]1(C)C(=O)[C@H](O)C3=C(C)[C@@H](OC(=O)[C@H](O)[C@@H](NC(=O)OC(C)(C)C)c4ccccc4)C[C@@](O)([C@@H](OC(=O)c4ccccc4)[C@H]21)C3(C)C [Docetaxel] + COc1cc2c(Oc3ccc(NC(=O)C4(C(=O)Nc5ccc(F)cc5)CC4)cc3F)ccnc2cc1OCCCN1CCOCC1 [Foretinib] (partner 0.25 µM)
Result: 0.291

Query: Now the compound CC(=O)O[C@@]12CO[C@@H]1C[C@H](O)[C@@]1(C)C(=O)[C@H](O)C3=C(C)[C@@H](OC(=O)[C@H](O)[C@@H](NC(=O)OC(C)(C)C)c4ccccc4)C[C@@](O)([C@@H](OC(=O)c4ccccc4)[C@H]21)C3(C)C [Docetaxel] + CC(=O)c1c(C)c2cnc(Nc3ccc(N4CCNCC4)cn3)nc2n(C2CCCC2)c1=O [Palbociclib] (partner 0.5 µM)
Result: 0.197

Query: Now the compound CC(=O)O[C@@]12CO[C@@H]1C[C@H](O)[C@@]1(C)C(=O)[C@H](O)C3=C(C)[C@@H](OC(=O)[C@H](O)[C@@H](NC(=O)OC(C)(C)C)c4ccccc4)C[C@@](O)([C@@H](OC(=O)c4ccccc4)[C@H]21)C3(C)C [Docetaxel] + CC(C)C[C@H](NC(=O)[C@H](Cc1ccccc1)NC(=O)c1cnccn1)B(O)O [Bortezomib] (partner 0.002 µM)
Result: 0.328

Query: Now the compound CC(=O)O[C@@]12CO[C@@H]1C[C@H](O)[C@@]1(C)C(=O)[C@H](O)C3=C(C)[C@@H](OC(=O)[C@H](O)[C@@H](NC(=O)OC(C)(C)C)c4ccccc4)C[C@@](O)([C@@H](OC(=O)c4ccccc4)[C@H]21)C3(C)C [Docetaxel] + Cc1nc(Nc2ncc(C(=O)Nc3c(C)cccc3Cl)s2)cc(N2CCN(CCO)CC2)n1 [Dasatinib] (partner 0.075 µM)
Result: 0.155

Query: Now the compound CC(=O)O[C@@]12CO[C@@H]1C[C@H](O)[C@@]1(C)C(=O)[C@H](O)C3=C(C)[C@@H](OC(=O)[C@H](O)[C@@H](NC(=O)OC(C)(C)C)c4ccccc4)C[C@@](O)([C@@H](OC(=O)c4ccccc4)[C@H]21)C3(C)C [Docetaxel] + NC(=O)Nc1cc(-c2cccc(F)c2)sc1C(=O)N[C@H]1CCCNC1 [AZD7762] (partner 0.2 µM)
Result: 0.142

---

Consider the following compounds; for each one, report its relative viability.
test system: IA-LM; test: relative viability (nuclei count vs DMSO), 5 days (fraction); higher = more cells survive; settings: first compound 0.002 µM
Form rule: numeric answer, no unit written next to it.

Query: Please give the measured relative viability for this compound: CC(=O)O[C@@]12CO[C@@H]1C[C@H](O)[C@@]1(C)C(=O)[C@H](O)C3=C(C)[C@@H](OC(=O)[C@H](O)[C@@H](NC(=O)OC(C)(C)C)c4ccccc4)C[C@@](O)([C@@H](OC(=O)c4ccccc4)[C@H]21)C3(C)C [Docetaxel] + O=C(CCCCCCC(=O)Nc1ccccc1)NO [Vorinostat] (partner 1 µM)
Result: 0.145

Query: Now the compound CC(=O)O[C@@]12CO[C@@H]1C[C@H](O)[C@@]1(C)C(=O)[C@H](O)C3=C(C)[C@@H](OC(=O)[C@H](O)[C@@H](NC(=O)OC(C)(C)C)c4ccccc4)C[C@@](O)([C@@H](OC(=O)c4ccccc4)[C@H]21)C3(C)C [Docetaxel] + C[C@]1(O)C[C@@H](c2nc(-c3ccc4ccc(-c5ccccc5)nc4c3)c3c(N)nccn32)C1 [Linsitinib] (partner 1 µM)
Result: 0.112

Query: Now the compound CC(=O)O[C@@]12CO[C@@H]1C[C@H](O)[C@@]1(C)C(=O)[C@H](O)C3=C(C)[C@@H](OC(=O)[C@H](O)[C@@H](NC(=O)OC(C)(C)C)c4ccccc4)C[C@@](O)([C@@H](OC(=O)c4ccccc4)[C@H]21)C3(C)C [Docetaxel] + Cc1nc(NC(=O)N2CCC[C@H]2C(N)=O)sc1-c1ccnc(C(C)(C)C(F)(F)F)c1 [Alpelisib] (partner 2 µM)
Result: 0.116

Query: Now the compound CC(=O)O[C@@]12CO[C@@H]1C[C@H](O)[C@@]1(C)C(=O)[C@H](O)C3=C(C)[C@@H](OC(=O)[C@H](O)[C@@H](NC(=O)OC(C)(C)C)c4ccccc4)C[C@@](O)([C@@H](OC(=O)c4ccccc4)[C@H]21)C3(C)C [Docetaxel] + C[C@@H](Oc1cc(-c2cnn(C3CCNCC3)c2)cnc1N)c1c(Cl)ccc(F)c1Cl [Crizotinib] (partner 1 µM)
Result: 0.0955

---

system: EPLC-272H; assay: relative viability (nuclei count vs DMSO), 5 days (fraction); higher = more cells survive; conditions: first compound 0.1265 µM
Field 'label' (enum: satisfied / not satisfied). Set to satisfied when relative viability is strictly under 0.9; else not satisfied.

Query: Quick check: relative viability of Cc1sc2c(c1C)C(c1ccc(Cl)cc1)=N[C@@H](CC(=O)OC(C)(C)C)c1nnc(C)n1-2 [JQ1] + C[C@]1(O)C[C@@H](c2nc(-c3ccc4ccc(-c5ccccc5)nc4c3)c3c(N)nccn32)C1 [Linsitinib] (partner 1 µM) under 0.9?
Result: not satisfied

Query: Now the compound Cc1sc2c(c1C)C(c1ccc(Cl)cc1)=N[C@@H](CC(=O)OC(C)(C)C)c1nnc(C)n1-2 [JQ1] + C[C@@H](Oc1cc(-c2cnn(C3CCNCC3)c2)cnc1N)c1c(Cl)ccc(F)c1Cl [Crizotinib] (partner 1 µM)
Result: satisfied

Query: Now the compound Cc1sc2c(c1C)C(c1ccc(Cl)cc1)=N[C@@H](CC(=O)OC(C)(C)C)c1nnc(C)n1-2 [JQ1] + O=C(c1cc(Cc2n[nH]c(=O)c3ccccc23)ccc1F)N1CCN(C(=O)C2CC2)CC1 [Olaparib] (partner 8 µM)
Result: satisfied

Query: Now the compound Cc1sc2c(c1C)C(c1ccc(Cl)cc1)=N[C@@H](CC(=O)OC(C)(C)C)c1nnc(C)n1-2 [JQ1] + CC(=O)Nc1cccc(-n2c(=O)n(C3CC3)c(=O)c3c(Nc4ccc(I)cc4F)n(C)c(=O)c(C)c32)c1 [Trametinib] (partner 0.02 µM)
Result: satisfied

Query: Now the compound Cc1sc2c(c1C)C(c1ccc(Cl)cc1)=N[C@@H](CC(=O)OC(C)(C)C)c1nnc(C)n1-2 [JQ1] + CS(=O)(=O)CCNCc1ccc(-c2ccc3ncnc(Nc4ccc(OCc5cccc(F)c5)c(Cl)c4)c3c2)o1 [Lapatinib] (partner 2 µM)
Result: not satisfied

Query: Now the compound Cc1sc2c(c1C)C(c1ccc(Cl)cc1)=N[C@@H](CC(=O)OC(C)(C)C)c1nnc(C)n1-2 [JQ1] + Cc1nc(Nc2ncc(C(=O)Nc3c(C)cccc3Cl)s2)cc(N2CCN(CCO)CC2)n1 [Dasatinib] (partner 0.075 µM)
Result: satisfied

Query: Now the compound Cc1sc2c(c1C)C(c1ccc(Cl)cc1)=N[C@@H](CC(=O)OC(C)(C)C)c1nnc(C)n1-2 [JQ1] + CC1(C)CCC(c2ccc(Cl)cc2)=C(CN2CCN(c3ccc(C(=O)NS(=O)(=O)c4ccc(N[C@H](CCN5CCOCC5)CSc5ccccc5)c(S(=O)(=O)C(F)(F)F)c4)cc3)CC2)C1 [Navitoclax] (partner 0.5 µM)
Result: not satisfied
